Assay: yeast display, Sf9 membrane polyspecificity reagent, FACS + sequencing; frameworks hold sequencing errors
Experimental Readout: polyreactivity (PSR sort gate)

Below: 4 sequences and their reported polyreactivity (PSR sort gate).
| Monomer Sequence | Result |
| --- | --- |
| QVQHVESGGGLVQAGGSLRLSCAASGSTFVQYAMGWYRQAPGKERELVAAIRGRGDSTYYADSVKGRFTISRDNAKNTVYLQMNSLKPEDTAVYYCAARGQGSRGMYYWGQGTQVTVSS | low polyreactivity |
| QVQLVESGGGLVQAGGSLRLSCAASGFTFYRYAMGSYRQAPGKERELFAAIRKSGGSTYYADSVKGRFTISRDNAKNTVYLLMNSMKAEDTAVYYCAKRYATDGFGYWGQGTQVTVSS | high polyreactivity |
| QVQLVESGGGLVQAGGSLRLSCAASGLTFDYYAMGWYRQAPGKERELVAAISSSGGSTYYADSVKGRFTISRDNAKNTVYLQMNSLKPEDTAVYYCNAGGRRRIFAHSSTGDYWGQGTQVTVSS | high polyreactivity |
| QVHLVESGGGLVQAGGSLRISCAASGRIFVGYVMGWYRQAPGKERELVAAITWRGGSTYADSVKGRFTISRDNAKNTVYLQMNSLIPEDTAVYYCAAKVSRTYPRIPYYYWGQGTQVTVSS | high polyreactivity |

What value of polyreactivity (PSR sort gate) has been recorded for this entry: QVQLVESGGGLVQAGGSLRLSCAASGSTFDAYAMGWYRQAPGKEWELVAAISTRGGRTDYADSVKGRFTISRDNAKNTVYLQMNSRKPEDTAVYYCTAVGARVNVRGTPAFDSWGQGTQVTVSS
high polyreactivity

Would you kindly share the measured polyreactivity (PSR sort gate) for QVQLVESGGGLVQAGGSLRLSCAPSGSTFRGNAMGWYRQAPGKERELVAAITRRGGSTYYADSVKGRFTISRDNAKNTVYLQMNSLKPEDTAVYYCAKVGRETEYAYWGQGTQVTVSS ?
high polyreactivity

Given the sequence QVQLVESGGGLVQAGGSLRLSCAASGSIFNYYALGWYRQAPGKEREFVADISGSGSSTYYADSVKGRFTISRDNAQNTVYLQMNSLKPEDTAVYYCNAEYYWGVGYYPYSDYGYWGQGTQVTVSS , what is its reported polyreactivity (PSR sort gate)?
low polyreactivity

Give the measured polyreactivity (PSR sort gate) of QVQLVESGGGLVQAGGSLRLSCAASGFTFSTYTMGWYRQAPGKERELVARITWSGTRTYYADSVKGRFTISRDNAKNTVYLQMNSLKPEDTAVYYCNAGPYARYYWGQGTQVTVSS .
high polyreactivity

I would be grateful if you could share the reported polyreactivity (PSR sort gate) for QVQLVESGGGLVQAGGSLRLSCAASGRTFTIYTMGWYRQAPGKERELVAAISRGGRTNYADSVKGRFTISRDNAKNTVYLQMNSLKPEDTAVYYCNADGSRYYTAYRLRLPYDYWGQGTQVTVSS .
high polyreactivity

I have this sequence here, QVQLVESGGGLVQAGGSLRLSCAASGFTFGYYAMGWYRQAPGKERELVAAINWSGDSTYYADSVKGRFTISRDNAKNTVYLQMNSLKPEDTAVYYCNAVIEDLPYDYWGQGTQVTVSS , and I need its recorded polyreactivity (PSR sort gate).
low polyreactivity

Given the sequence QVQLVESGGGLVQAGGSLRLSCAASGSIFLVNARGWYRQAPAKERELVASITWRGGRTYYADSVKGRFTISRDNAKNTDYLQMNSLKPEDTAVYYCAARNYRTGERLRYDYWGQGTQVTVSS , what is its reported polyreactivity (PSR sort gate)?
low polyreactivity
